Recorded measurements of folding stability dG unfold, one per entry
- TEST_METHOD_NOTES: folding stability dG unfold from trypsin proteolysis; higher = more stable
ASSAY_READOUT: folding stability dG unfold

                               sequence_data  endpoint_value
 0  SAGGSAGGMKVVVKFTVRPRDPDTDEAVPAELVLEFDSLEEALAAAEELAALPEGTEIEIEVLTSAGGSAGG [r6_999_TrMRF]     9.22 kJ/mol
 1  SAGGSAGGSAGLPENVKLVKVTVTITYPNGEKETIPVVAPVPVLEKLLSLPGLPVSVTDESAGGSAGGSAGG [r17_313_TrMRF]     1.94 kJ/mol
 2  SAGGTLKVTEEEVSESEFESPGLPLRRTTTTYTLVDPVTGKPVPTSKKVTVETLETPEGRVLETVVTSSAGG [r13_24_JUSTAS]    -1.88 kJ/mol
 3  SAGGSAGGSAGMTITKTEDGTYRLTLTVTETLPNGSTVTRTVTLTVPLEDAEEILAALPPSAGGSAGGSAGG [r11_505_TrROS_Hall]     10.5 kJ/mol
 4  SAGGSAGGSADPPRSVLKEERSPDGTTTYKLLEYPGERVLVVTRTPPDGTEEVVLIPEEELSAGGSAGGSAG [r3_167_JUSTAS]     1.35 kJ/mol
 5  SAGGSAGGSMLVLHLPNGKEIPIPPGEFSEDTGVEDIAARIPPEVRRLRIYNEDGTEVEVPIDSAGGSAGGS [r20_161_TrMRF]   0.0218 kJ/mol
 6  SAGGSAGGMTKDDIIEKLKKEYPDKDVKVLKVEESVLPSGKILAKVTLEFPEEGKTFEKTFEVESAGGSAGG [r6_572_JUSTAS]     12.2 kJ/mol
 7  SAGKKIKLELYFEENGLKVEVEFDEETGVITVKVELKDGTRIEAKFELLPDGTLKLEIKIEKVKPGEKPSAG [r5_766_TrROS_Hall]     12.3 kJ/mol
 8  SADEALRRLLENMTPEELAALLAPAVPGPPVEVLVVPREVLPEVLRRLREEFDVEFEEEGDFVRIVVRGSAG [r14_7_TrMRF]     9.52 kJ/mol
 9  SAGGSGMIYVIKIKLEPTIKPGKKKEFEFELVLEATPEEIEEVLEKIKKLPKNIKIKEIKIEVFPESAGGSA [r2_75_TrMRF]     8.71 kJ/mol
10  SAGMTIIKIEFPDGSKATVDPTNPSTMTITDPNGNTTVLNLTGVEEAKKQLIETLKKETGLPVKKVEVESAG [r5_119_JUSTAS]     2.06 kJ/mol
11  SAGGSAGGMVKLKVYKIPESVPPELRALLEALVEGEGEVEVEPEEAEALLKLPGIEELEVEELESAGGSAGG [r6_381_TrMRF]     3.82 kJ/mol
12  SAGGSAGGSAGGGPSVAPFEVTELLSVSYVPGPRRFVAVVRLPDPERLVVVPVEDLPPGQSAGGSAGGSAGG [r7_304_TrMRF]    -3.94 kJ/mol
13  SPVSLSFTTAPSGLPTVTSASQPADGSLLLTLTEPATGATTTLTLPPGLPPGVERTVTLPGPDGATTLTVGS [r1_43_JUSTAS]    -2.84 kJ/mol
